Data provenance: patent US20220281866A1

Molecular target: Bovine trypsin (Bos taurus)
Construct: purchased Sigma-Aldrich T1426
Sequence (P00760 24-246): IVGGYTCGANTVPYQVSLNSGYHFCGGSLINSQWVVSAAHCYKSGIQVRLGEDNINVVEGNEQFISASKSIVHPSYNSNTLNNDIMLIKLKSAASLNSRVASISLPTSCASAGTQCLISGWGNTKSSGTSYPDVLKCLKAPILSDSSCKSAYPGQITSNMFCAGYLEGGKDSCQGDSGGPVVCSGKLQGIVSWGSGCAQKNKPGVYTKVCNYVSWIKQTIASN
Test: Biochemical Assay of Trypsin (T), H-D-CHA-AR-AMC substrate
Settings: compound 1 μM, 15 μM substrate, 0.025 nM Trypsin
property_name: inhibition at 1 µM (%)
Quick reminder: number only, in %, skip the unit.

// below: answered compounds
CS(=O)(=O)NC(=O)Cc1ccc(OC(=O)c2cnc(NC(=N)N)nc2)c2ncnn12 100
C#CCOCC#Cc1cc(NC(=N)N)ccc1C(=O)Oc1ccc(CC(=O)O)n2ncnc12 99.5
N=C(N)Nc1ccc(C(=O)Oc2ccc(CC(=O)N(CC(=O)O)CC(=O)O)n3ncnc23)cc1 99.9

Note: attention shifts to another entry.
Data request: inhibition at 1 µM lookup needed for `N=C(N)Nc1ccc(C(=O)Oc2cc(CC(=O)O)cn3ncnc23)cc1` , thanks.
Data returned: 100

----------
molecular target: Bovine trypsin (Bos taurus, UniProt P00760); construct: purchased Sigma-Aldrich T1426; assay: Biochemical Assay of Trypsin (T), H-D-CHA-AR-AMC substrate; conditions: compound 10 μM, 15 μM substrate, 0.025 nM Trypsin
property_name: inhibition at 10 µM (%)
Quick reminder: number only, in %, skip the unit.

// below: answered molecules
molecule	inhibition at 10 µM (%)
Cc1cc(NC(=N)N)ccc1C(=O)Oc1ccc(CC(=O)O)n2ncnc12	99.7
N=C(N)Nc1ccc(C(=O)Oc2ccc(CC(=O)O)n3ncnc23)cc1O	100
C#CCOCCOCC#Cc1cc(NC(=N)N)ccc1C(=O)Oc1ccc(CC(=O)O)n2ncnc12	100
N=C(N)Nc1ccc(C(=O)Oc2ccc(CC(=O)O)n3ncnc23)cc1	100
CS(=O)(=O)NC(=O)Cc1ccc(OC(=O)c2ccc(NC(=N)N)cc2)c2ncnn12	99.9
N=C(N)Nc1ccc(C(=O)Oc2ccc(CCC(=O)O)n3ccnc23)cc1	100
N=C(N)Nc1ccc(C(=O)Oc2ccc(Cc3nn[nH]n3)n3ncnc23)cc1	100
N=C(N)Nc1ccc(C(=O)Oc2ccc(CC(=O)O)n3ncnc23)cc1F	100

Data request: inhibition at 10 µM lookup needed for `N=C(N)Nc1ccc(C(=O)Oc2ccc(CC(=O)N(CC(=O)O)CC(=O)O)n3ncnc23)cc1` , thanks.
Data returned: 100

----------
target: Recombinant full-length human EP (Enteropeptidase) (Homo sapiens, UniProt P98073); construct: Recombinant full-length human EP (PeproTech, Cat #450-48C); purchased PeproTech 450-48C; experiment: In vitro inhibition potencies against Enteropeptidase (EP), fluorescent peptide GDDDDK-naphthylamine substrate; type: biochemical; conditions: compound 0.1 μM, 300 μM substrate, 1.25 nM EP
Sequence (P98073 whole entry): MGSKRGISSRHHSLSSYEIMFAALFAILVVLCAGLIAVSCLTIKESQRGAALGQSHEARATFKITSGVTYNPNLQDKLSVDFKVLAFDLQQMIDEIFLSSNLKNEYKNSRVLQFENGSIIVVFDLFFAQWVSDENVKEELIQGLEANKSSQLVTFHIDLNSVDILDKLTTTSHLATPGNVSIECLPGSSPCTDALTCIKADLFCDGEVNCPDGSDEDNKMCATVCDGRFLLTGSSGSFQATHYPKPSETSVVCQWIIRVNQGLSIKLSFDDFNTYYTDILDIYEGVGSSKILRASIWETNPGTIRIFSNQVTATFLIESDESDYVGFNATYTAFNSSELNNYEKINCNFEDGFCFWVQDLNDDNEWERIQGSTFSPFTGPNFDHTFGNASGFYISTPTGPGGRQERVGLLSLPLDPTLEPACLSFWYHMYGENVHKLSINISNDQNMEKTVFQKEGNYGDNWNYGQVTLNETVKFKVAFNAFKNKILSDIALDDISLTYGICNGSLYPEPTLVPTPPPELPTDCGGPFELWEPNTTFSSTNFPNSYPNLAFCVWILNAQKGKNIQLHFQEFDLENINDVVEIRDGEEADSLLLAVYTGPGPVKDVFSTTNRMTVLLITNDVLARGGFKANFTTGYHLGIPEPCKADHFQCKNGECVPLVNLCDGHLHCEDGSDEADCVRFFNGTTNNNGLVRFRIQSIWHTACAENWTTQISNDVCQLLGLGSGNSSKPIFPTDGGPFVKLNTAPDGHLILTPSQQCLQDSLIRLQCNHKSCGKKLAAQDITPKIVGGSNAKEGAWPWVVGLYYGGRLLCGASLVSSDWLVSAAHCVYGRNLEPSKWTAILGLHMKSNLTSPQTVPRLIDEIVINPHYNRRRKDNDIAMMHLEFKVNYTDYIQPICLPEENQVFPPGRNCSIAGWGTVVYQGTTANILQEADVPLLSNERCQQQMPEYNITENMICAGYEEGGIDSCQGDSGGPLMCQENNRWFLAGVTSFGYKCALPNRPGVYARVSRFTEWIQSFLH
property_name: inhibition at 0.1 µM (%)
Quick reminder: number only, in %, skip the unit.

// below: answered compounds
compound	tested_target	inhibition at 0.1 µM / %
CS(=O)(=O)NC(=O)Cc1ccc(OC(=O)c2cnc(NC(=N)N)nc2)c2ncnn12	Recombinant full-length human EP (Enteropeptidase) (Homo sapiens, UniProt P98073)	92.1
N=C(N)Nc1ccc(C(=O)Oc2ccc(CC(=O)NCC(=O)O)n3ncnc23)cc1	Recombinant full-length human EP (Enteropeptidase) (Homo sapiens, UniProt P98073)	48.1
Cc1cc(C(=O)Oc2ccc(CC(=O)O)n3ncnc23)ccc1NC(=N)N	Recombinant full-length human EP (Enteropeptidase) (Homo sapiens, UniProt P98073)	1.3
N=C(N)Nc1ccc(C(=O)Oc2ccc(CC(=O)O)n3ncnc23)c(C(F)(F)F)c1	Recombinant full-length human EP (Enteropeptidase) (Homo sapiens, UniProt P98073)	4.1
N=C(N)Nc1ccc(C(=O)Oc2ccc(Cc3nn[nH]n3)n3ncnc23)cc1	Recombinant full-length human EP (Enteropeptidase) (Homo sapiens, UniProt P98073)	89.7

Data request: inhibition at 0.1 µM lookup needed for `CC(=N)Nc1ccc(C(=O)Oc2ccc(CC(=O)O)n3ncnc23)cc1` , thanks.
Data returned: 47.8

Data request: inhibition at 0.1 µM lookup needed for `N=C(N)Nc1ccc(C(=O)Oc2ccc(CC(=O)O)n3ncnc23)c(Cl)c1` , thanks.
Data returned: 81.2

Data request: inhibition at 0.1 µM lookup needed for `N=C(N)Nc1ccc(C(=O)Oc2ccc(CCC(=O)O)n3ccnc23)cc1` , thanks.
Data returned: 27.6
